System: human mononuclear cells (PBMC) stimulated with staphylococcal enterotoxin B (SEB)
Test: cells
Format: cell-based
Details: read-out: EC50 Cytokine Release IL-1α
observationType: pEC50
In simple prose, pEC50 is minus the logarithm base ten of a concentration in moles per litre.

Q. Quick check: pEC50 of `CS(=O)(=O)c1cccc(C[C@H](NC(=O)c2c(Cl)cc3c(c2Cl)CCN(C(=O)c2ccc4ccoc4c2)C3)C(=O)O)c1` ?
A. 6.62

----------
Experiment: Tear PK after a single topical ocular instillation in rabbits
Conditions: rabbit, in vivo, topical or ocular, 1.05 mg
observationType: AUC (µg·h/mL)
Expressed in µg·h/mL, but write only the number.

Q. Could you tell me which AUC is on file for CS(=O)(=O)c1cccc(C[C@H](NC(=O)c2c(Cl)cc3c(c2Cl)CCN(C(=O)c2ccc4ccoc4c2)C3)C(=O)O)c1 [Compound 12] ?
A. 183

----------
Assay: 13-week IV toxicity study in rats with 4-week recovery (with plasma exposure)
Settings: rat, 3 mg/kg, AUC0-n, 3 mg/kg daily IV bolus, Week 13
observationType: AUC

Q. I am curious: what AUC value has been reported for `CS(=O)(=O)c1cccc(C[C@H](NC(=O)c2c(Cl)cc3c(c2Cl)CCN(C(=O)c2ccc4ccoc4c2)C3)C(=O)O)c1` ?
A. 241 ng·h/mL

----------
Test: in vivo
Conditions: rat, iv
observationType: NOAEL at 13 week (mg/kg)
Just the number in mg/kg, nothing appended.

Q. // query NOAEL at 13 week value for entry CS(=O)(=O)c1cccc(C[C@H](NC(=O)c2c(Cl)cc3c(c2Cl)CCN(C(=O)c2ccc4ccoc4c2)C3)C(=O)O)c1 [Compound 12]
A. 30

----------
Assay: in vivo
Conditions: dog, iv
observationType: NOAEL at 4 week (mg/kg)
The answer is to be given in mg/kg; state only the numeric part.

Q. If you can, please state the reported NOAEL at 4 week value of `CS(=O)(=O)c1cccc(C[C@H](NC(=O)c2c(Cl)cc3c(c2Cl)CCN(C(=O)c2ccc4ccoc4c2)C3)C(=O)O)c1` .
A. 10

----------
Test: Plasma PK in rats after a single IV bolus dose
Type: in vivo, rat
Conditions: rat, 10.0 mg/kg single IV bolus, read-out: AUC0-n
observationType: AUC (ng·h/mL)
Numbers only; they are read as ng·h/mL.

Q. Looking for the measured AUC of CS(=O)(=O)c1cccc(C[C@H](NC(=O)c2c(Cl)cc3c(c2Cl)CCN(C(=O)c2ccc4ccoc4c2)C3)C(=O)O)c1 [Compound 12] , can you help?
A. 728

----------
Assay: Plasma PK after a single topical ocular instillation (dogs and rabbits)
Conditions: in vivo, topical or ocular, 1.05 mg
observationType: AUC (ng·h/mL)
Give the number; ng·h/mL is assumed, so skip it.

Q. Could you tell me which AUC is on file for `CS(=O)(=O)c1cccc(C[C@H](NC(=O)c2c(Cl)cc3c(c2Cl)CCN(C(=O)c2ccc4ccoc4c2)C3)C(=O)O)c1` ?
A. 22.9

----------
Test: Plasma PK in rats after a single IV bolus dose
Type: in vivo, rat
Settings: rat, 10.0 mg/kg single IV bolus
observationType: Cmax (ng/mL)
Write the number in ng/mL without appending the unit.

Q. State the recorded Cmax for this entry: `CS(=O)(=O)c1cccc(C[C@H](NC(=O)c2c(Cl)cc3c(c2Cl)CCN(C(=O)c2ccc4ccoc4c2)C3)C(=O)O)c1`
A. 1060

----------
Experiment: in vivo
Details: topical or ocular, 0.35 mg
observationType: Cmax (ng/mL)
Report as a plain number; the unit ng/mL is understood.

Q. Requested field: Cmax. Item: CS(=O)(=O)c1cccc(C[C@H](NC(=O)c2c(Cl)cc3c(c2Cl)CCN(C(=O)c2ccc4ccoc4c2)C3)C(=O)O)c1 [Compound 12]
A. 13.1

----------
Assay: Pilot mini-pig dermal study
Format: in vivo
Settings: minipig, plasma, topical, 10 mg/cm^2 of 1% formulation over approximately 50 cm^2; all groups; below LLOQ; read-out: Plasma levels
Description: One pig/dose formulation was used. In-life PK analysis was completed.
observationType: concentration at 7 days

Q. Param item = `CS(=O)(=O)c1cccc(C[C@H](NC(=O)c2c(Cl)cc3c(c2Cl)CCN(C(=O)c2ccc4ccoc4c2)C3)C(=O)O)c1` ; retrieve measured concentration at 7 days.
A. < 0.5 ng/mL

----------
Assay: Plasma PK in rats after a single IV bolus dose
Assay type: in vivo, rat
Conditions: rat, 10.0 mg/kg single IV bolus, read-out: Vss
observationType: Vd (L/kg)
Your answer should be a plain number; it is taken to be in L/kg.

Q. # input compound: CS(=O)(=O)c1cccc(C[C@H](NC(=O)c2c(Cl)cc3c(c2Cl)CCN(C(=O)c2ccc4ccoc4c2)C3)C(=O)O)c1 [Compound 12] ; wanted: its Vd
A. 9.56

----------
Experiment: 13-week IV toxicity study in rats with 4-week recovery (with plasma exposure)
Conditions: rat, 10 mg/kg, AUC0-n, 10 mg/kg daily IV bolus, Day 1
observationType: AUC (ng·h/mL)
API: value field is a number in ng·h/mL; no unit string.

Q. Need AUC, item `CS(=O)(=O)c1cccc(C[C@H](NC(=O)c2c(Cl)cc3c(c2Cl)CCN(C(=O)c2ccc4ccoc4c2)C3)C(=O)O)c1`
A. 536

----------
Test system: human mononuclear cells (PBMC) stimulated with staphylococcal enterotoxin B (SEB)
Experiment: cells
Type: cell-based
Conditions: read-out: EC50 Cytokine Release IP-10
observationType: EC50 (µM)
Give the quantity in µM, number only.

Q. Look up EC50 for this compound: CS(=O)(=O)c1cccc(C[C@H](NC(=O)c2c(Cl)cc3c(c2Cl)CCN(C(=O)c2ccc4ccoc4c2)C3)C(=O)O)c1 [Compound 12]
A. 1.16

----------
Assay: 13-week IV toxicity study in rats with 4-week recovery (with plasma exposure)
Details: rat, 10 mg/kg, Cmax, 10 mg/kg daily IV bolus, Day 1
observationType: Cmax (ng/mL)
Write it as a number; the unit ng/mL goes unstated.

Q. Item `CS(=O)(=O)c1cccc(C[C@H](NC(=O)c2c(Cl)cc3c(c2Cl)CCN(C(=O)c2ccc4ccoc4c2)C3)C(=O)O)c1` has what recorded Cmax?
A. 1050

----------
Test: Plasma PK after a single topical ocular instillation (dogs and rabbits)
Settings: in vivo, topical or ocular, 1.05 mg
observationType: Cmax
Field: value (include unit after the number)

Q. // lookup Cmax for `CS(=O)(=O)c1cccc(C[C@H](NC(=O)c2c(Cl)cc3c(c2Cl)CCN(C(=O)c2ccc4ccoc4c2)C3)C(=O)O)c1`
A. 38.9 ng/mL

----------
Experiment: in vivo
Conditions: rabbit, topical or ocular, 0.35 mg
observationType: Cmax (ng/mL)
Reply numerically in ng/mL, unit not repeated.

Q. Which Cmax is reported for this compound? CS(=O)(=O)c1cccc(C[C@H](NC(=O)c2c(Cl)cc3c(c2Cl)CCN(C(=O)c2ccc4ccoc4c2)C3)C(=O)O)c1 [Compound 12]
A. 21500

----------
Experiment: in vivo
Details: topical or ocular, 0.105 mg
observationType: AUC (ng·h/mL)
Numeric only. Scale: ng·h/mL

Q. Given the compound `CS(=O)(=O)c1cccc(C[C@H](NC(=O)c2c(Cl)cc3c(c2Cl)CCN(C(=O)c2ccc4ccoc4c2)C3)C(=O)O)c1` , what is its reported AUC?
A. 5.19

----------
Test system: human mononuclear cells (PBMC) stimulated with staphylococcal enterotoxin B (SEB)
Test: cells
Assay type: cell-based
Details: read-out: EC50 Cytokine Release IL-5
observationType: EC50 (µM)
Response body: numeric value in µM, unit text excluded.

Q. Any idea what EC50 was measured for CS(=O)(=O)c1cccc(C[C@H](NC(=O)c2c(Cl)cc3c(c2Cl)CCN(C(=O)c2ccc4ccoc4c2)C3)C(=O)O)c1 [Compound 12] ?
A. 0.11

----------
Assay: Pilot ocular tolerance of topically administered Compound 12 in dogs-PK
Assay type: in vivo, dog
Details: dog, vitreous fluid, topical; TID for three days with 3.5 mg/eye (10%); ranged from BLOQ; read-out: levels in the vitreous fluid
observationType: concentration at 3 days

Q. Using the record for `CS(=O)(=O)c1cccc(C[C@H](NC(=O)c2c(Cl)cc3c(c2Cl)CCN(C(=O)c2ccc4ccoc4c2)C3)C(=O)O)c1` , report its concentration at 3 days.
A. ≤ 18 ng/mL

----------
Assay: Plasma PK in rats after a single IV bolus dose
Assay type: in vivo, rat
Details: rat, 10.0 mg/kg single IV bolus
observationType: half-life (h)
Give the value in h but do not write h after it.

Q. Suppose we examine the compound CS(=O)(=O)c1cccc(C[C@H](NC(=O)c2c(Cl)cc3c(c2Cl)CCN(C(=O)c2ccc4ccoc4c2)C3)C(=O)O)c1 [Compound 12] ; what half-life value has been reported?
A. 3.76

----------
Assay: 13-week IV toxicity study in rats with 4-week recovery (with plasma exposure)
Details: rat, 3 mg/kg, Cmax, 3 mg/kg daily IV bolus, Week 13
observationType: Cmax (ng/mL)
Kindly answer with a numeric value in ng/mL, unit omitted.

Q. Look at this compound and give its reported Cmax. CS(=O)(=O)c1cccc(C[C@H](NC(=O)c2c(Cl)cc3c(c2Cl)CCN(C(=O)c2ccc4ccoc4c2)C3)C(=O)O)c1 [Compound 12]
A. 378
